All figures here come from patent US6380218B1.

Structures can show the parent of a compound that is named as a salt.
recordedEndpoint: melting point

{"compound": "O=C(NCC(O)c1ccccc1)c1cccnc1Oc1cccc(Cl)c1 (stereo not drawn)", "dataValue": "118 to 119 °C"}
{"compound": "COc1cccc(Oc2ncccc2C(=O)NCc2ccccc2Cl)c1", "dataValue": "71 to 74 °C"}
{"compound": "O=C(Cc1ccccc1)c1cccnc1Oc1ccc(F)cc1", "dataValue": "81 to 82 °C"}
{"compound": "O=C(NCc1ccccc1F)c1cccnc1Oc1cccnc1", "dataValue": "90 to 92 °C"}
{"compound": "O=C(Cc1ccccc1Cl)Nc1cccnc1Oc1ccc(F)cc1", "dataValue": "73 to 75 °C"}
{"compound": "CC(=O)c1cccc(Oc2ncccc2C(=O)NCc2ccc([C@H](C)O)cc2)c1", "dataValue": "102 to 104 °C"}
{"compound": "CN(C)c1cccc(Oc2ncccc2C(=O)NCc2ccccc2Cl)c1 (as salt: HCl)", "dataValue": "85 to 87 °C"}
{"compound": "O=C(NCc1ccc(N2CCCCC2)cc1)c1cccnc1Oc1ccc(F)cc1", "dataValue": "118 to 119 °C"}
{"compound": "CC(O)C1CCC(CNC(=O)c2cccnc2Oc2ccc(F)c(C#N)c2)CC1 (single isomer, unassigned; (-))", "dataValue": "134 to 135 °C"}
{"compound": "O=C(NCc1ccc(F)s1)c1cccnc1Oc1cccnc1", "dataValue": "99 to 101 °C"}
{"compound": "O=C(NCc1ccc2c(c1)OCO2)c1cccnc1Oc1cccnc1", "dataValue": "130 to 131 °C"}
{"compound": "CC(C)(C)c1cc(CNC(=O)c2cccnc2Oc2ccc(F)cc2)cc(C(C)(C)C)c1O", "dataValue": "45 to 47 °C"}
{"compound": "CC(C)(O)c1ccc(CNC(=O)c2cccnc2Oc2cccnc2)cc1Cl", "dataValue": "139 to 141 °C"}
{"compound": "O=C1COC(CNC(=O)c2cccnc2Oc2ccc(F)cc2)CN1 (stereo not drawn)", "dataValue": "157 to 159 °C"}
{"compound": "CCOC(=O)c1cc2cc(CNC(=O)c3cccnc3Oc3ccc(F)cc3)ccc2[nH]1", "dataValue": "185 to 187 °C"}
{"compound": "O=C(c1cc2ccccc2[nH]1)c1cccnc1Oc1ccc(F)cc1", "dataValue": "169 to 170 °C"}
{"compound": "O=C(NCC1CCCCC1)c1cccnc1Oc1cncc(Cl)c1", "dataValue": "95 to 97 °C"}
{"compound": "CC(=O)c1cc(Oc2ncccc2C(=O)NC[C@H]2CC[C@H](C(C)(C)O)CC2)ccc1Cl", "dataValue": "106 to 108 °C"}

---

Each entry below carries its reported melting point.

{"molecule": "CC(C)(O)c1ccc(CNC(=O)c2cccnc2Oc2cccc(C#N)c2)c(Cl)c1", "melting point": "121 to 123 °C"}
{"molecule": "O=C(NCc1sccc1Cl)c1cccnc1Oc1ccc(F)cc1", "melting point": "134 to 136 °C"}
{"molecule": "CC(C)(O)C1CCC(CNC(=O)c2cccnc2Oc2ccc(F)cc2)CC1 (stereo not drawn)", "melting point": "78 to 80 °C"}
{"molecule": "O=C(NCc1ccccc1Cl)c1cccnc1Oc1cccc(F)c1", "melting point": "115 to 117 °C"}
{"molecule": "CC(C)(O)c1ccc(CNC(=O)c2cccnc2Oc2cccc(Cl)c2)cc1", "melting point": "57 to 59 °C"}
{"molecule": "COC(=O)c1ccc(CNC(=O)c2cccnc2Oc2cccnc2)cc1", "melting point": "125 to 127 °C"}
{"molecule": "CC(C)(O)c1sc(CNC(=O)c2cccnc2Oc2ccc(F)cc2)cc1Cl", "melting point": "115 to 117 °C"}
{"molecule": "O=C(NCc1ccccc1Cl)c1cccnc1OCc1cccnc1", "melting point": "91 to 93 °C"}
{"molecule": "CC(C)(O)c1ccc(CNC(=O)c2cccnc2Oc2ccc3ncsc3c2)cc1", "melting point": "195 to 197 °C"}
